B1: library; numbered along this chain (parent)
chain: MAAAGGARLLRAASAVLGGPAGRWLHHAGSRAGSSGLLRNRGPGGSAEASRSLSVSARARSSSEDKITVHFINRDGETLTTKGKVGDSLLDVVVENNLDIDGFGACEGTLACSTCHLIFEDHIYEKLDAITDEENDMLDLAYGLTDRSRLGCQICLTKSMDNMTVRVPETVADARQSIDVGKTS

variants of: B1; assay: scaled log2 fold change in cell abundance, elesclomol vs control (0 = silent mean, 1 = nonsense mean) (scaled log2 ratio); higher = higher viability under elesclomol (loss of FDX1 cuproptosis function); conditions: with ABC1 FDX1 KO; elesclomol 5 nM; glucose 10 mM; 14 days;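 note: variant abundance is its share of total variant reads in each endpoint sample, from next-generation sequencing of the integrated ORF PCR-amplified out of genomic DNA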
scaled log2 fold change reference
Kindly provide the number alone.

// field: scaled log2 fold change; key: S61W ; value = -0.113

# scaled log2 fold change of G42S = 0.232

// sample E95K , its scaled log2 fold change was 0.0162

Looking up C106F , I see its scaled log2 fold change listed as 1.03

Value of scaled log2 fold change reported for the variant K84N is 0.0469

Next:
response.value for W24F (field: scaled log2 fold change) = 0.286

scaled log2 fold change reported for this variant C115M : 1.03

For L138Y the variant record lists scaled log2 fold change as 0.578

Short answer for L37W : scaled log2 fold change was 0.235

scaled log2 fold change reported for this variant R8V : 0.395

Record summary for Q176H : reported scaled log2 fold change = -0.0199

The reported scaled log2 fold change of the variant F71W was 0.102

scaled log2 fold change recorded for this variant, W24C , is 0.00637
